Molecular target: EGFR on A431 epidermoid carcinoma cells (human, UniProt P00533 25-1210)
Test: cell-based or functional assay
IC50 of A431 Proliferation values by entry
Form entry: enter the amount, then its unit.

Some entries whose results are on file:
# Binder, IC50 of A431 Proliferation
rows = [
    ("H1H0085N (antibody, V domains shown, Tested in human IgG1 Fc format (H1H prefix); first obtained as H1M (mouse IgG1 Fc) from a hybridoma; also called H1M085N; H1H085N) VH: EVQLVESGGGLVQPGRSLRLSCAASGFTFDDYAMHWVRQAPGKGLEWVSGINWNSDKIAYADSVKGRFTISRDNAENSLFLQMNSLRPEDTALYYCVKRGDFWTEYYDYWGQGTLVTVSS VL: DIVMTQSPLSLPVTPGEPASISCRSSQSLLHSNGYNYLDWYLQKPGQSPHLLIYLVSTRASGVPDRFSGSGSGTDFTLKISRVEAEDVGVYYCIQALQTPWTFGQGTKVEIK", "1.65e-09 Molar"),
    ("H1H103N (antibody, human IgG1, V domains shown, Tested in human IgG1 Fc format (H1H); also called H1M103N) VH: EVQLVESGGGLVQPGGSLRLSCAASGFTFSSYDMHWVRQTTGKGLEWVSGIGTAGDTYYPGSVKGRFTISREDAKNSLYLQMNSLRAGDTAVYYCARVGYDWNFVAFDYWGQGTLVTVSS VL: DIVMTQSPLSLPVTPGEPASISCRSSQSLLHSNGYNYLDWYLQKPGQSPQLLIHLVSIRASGVPDRFSGSGSGTDFTLKISRVEAEDVGIYYCMQALQTPWTFGQGTKVEIK", "3.89e-09 Molar"),
]

State the recorded IC50 of A431 Proliferation for this entry: H1H116N (antibody, human IgG1, V domains shown, Tested in human IgG1 Fc format (H1H); also called H1M116N) VH: QVQLQESGPGLVKPSQTLSLTCTVSGGSVSSGDYYWSWIRQHPGKGLDWIGHIYYSGSTYYNPSLKSRVTISLDTSKNQFSLKLNSVTAADTAVYYCARTAITGTMDYWGQGTLVTVSS VL: EIVMTQSPATLSVSAGERATLSCRASQSVSSNLAWFQQKPGQAPRLLIYDASTRATGIPARFSGSGSGTEFTLIISSLQSEDFALYYCQQYNSWWTFGQGTKVEIK
2.24e-10 Molar
